FYI, the data here is from the ASAP Discovery antiviral challenge data (2025).

conditions: mdck_mdr1
readout_type: Papp
Remember to quote the unit after the number.

Sample answers from the record:
compound: NCc1cccc(NC(=O)c2cc(Cl)cc(NC(=O)OCc3ccccc3)c2)c1
Papp: 2.11 ×10⁻⁶ cm/s
--
compound: O=C(Nc1cc2c(cc1Br)CNC2)c1cc(F)cc2[nH]ncc12
Papp: 7.65 ×10⁻⁶ cm/s
--
compound: C=CC[C@H]1NCc2cc(NC(=O)c3cc(F)cc4[nH]ncc34)ccc21 (racemic)
Papp: 3.86 ×10⁻⁶ cm/s
--
compound: CC(C)[C@H](Nc1ncnc(N)c1Cl)c1ccc2c(c1)S(=O)(=O)CCC2 (racemic)
Papp: 10.1 ×10⁻⁶ cm/s

Please report Papp for every entry that follows.
1. O=C1Cc2c(cc(F)cc2C(=O)Nc2ccc3c(c2)CNC3)N1
2. NCc1cccc(NC(=O)c2cc(Cl)cc(CN)c2)c1
3. CC(C)[C@H](Nc1ncnc2[nH]c(-c3ccc4cncn4c3)cc12)c1ccc2c(c1)S(=O)(=O)CCC2 (racemic)
4. O=C(NCC(F)F)[C@H](Nc1cnc2c(c1)CNC2)c1cc(Cl)cc(C2CC2)c1 (racemic)
5. O=C(O)COc1cccc(NC(=O)c2cc(Cl)cc(NC(=O)OCc3ccccc3)c2)c1

Reply |
["2.9 ×10⁻⁶ cm/s", "1.96 ×10⁻⁶ cm/s", "0.56 ×10⁻⁶ cm/s", "0.8 ×10⁻⁶ cm/s", "1.1 ×10⁻⁶ cm/s"]

----------
conditions: human; liver_microsomes
readout_type: log10 microsomal CLint (log10 of the value in µL/min/mg)
All values: base-10 log of microsomal CLint in µL/min/mg.

Please report log10 microsomal CLint for every entry that follows.
1. CC(C)[C@H](Nc1ncnc2[nH]c(-c3cnn(CC(N)=O)c3)cc12)c1ccc2c(c1)S(=O)(=O)CCC2 (racemic)
2. O=C(Nc1cc2c(cc1Br)CNC2)c1cc(F)cc2[nH]ncc12
3. CN(c1ccc2c(c1)CNC2)[C@H](C(=O)NCC(F)F)c1cc(Cl)cc(C2CC2)c1 (racemic)
4. CC(C)(C)[C@H](Nc1ncnc2[nH]c(-c3cnn(CC(N)=O)c3)cc12)c1ccc2c(n1)OCCO2 (racemic)
5. CC(C)[C@H](Nc1ncnc2[nH]cc(C(N)=O)c12)c1ccc2c(c1)OCCO2 (racemic)
6. NCc1cccc([C@H]2C[C@@H]2c2cc(Cl)cc(NC(=O)OCc3ccccc3)c2)c1 (racemic)
7. NCc1cccc(NC(=O)C[C@H](NC(=O)OCc2ccccc2)c2ccc(OCc3ccccc3)c(Br)c2)c1 (racemic)

Reply |
[2.06, 1.06, 1.23, 1.56, 2.16, 1.06, 1.09]

Ask | Recorded log10 microsomal CLint of COc1ccc([C@H](NC(=O)c2ncnc3[nH]ccc23)C(C)c2nnn[nH]2)cc1 (mixture of isomers) , please.
Reply | 0.30

----------
Exercise: state measured log10 microsomal CLint for each of the compounds provided.
conditions: mouse; liver_microsomes
All values: base-10 log of microsomal CLint in µL/min/mg.

Sample answers from the record:
compound: COc1ccc([C@H](CC(=O)O)NC(=O)c2ncnc3[nH]ccc23)cc1 (racemic)
log10 microsomal CLint: 0.30
--
compound: CC(C)[C@H](Nc1ncnc2[nH]cc(C(N)=O)c12)c1ccc2c(c1)OCCO2 (racemic)
log10 microsomal CLint: 2.15
--
compound: O=C(Nc1ccc2c(c1)CNC2)c1cc(Cl)cc2c1cnn2C1CCC1
log10 microsomal CLint: 1.13
--
compound: O=C(O)c1cc(Cl)ccc1NS(=O)(=O)c1ccc(Oc2ccccc2Cl)cc1
log10 microsomal CLint: 1.11
--
compound: O=C(Nc1ccc2c(c1)CNC2)c1cc(F)cc2c1CCC2
log10 microsomal CLint: 1.57

Please report log10 microsomal CLint for every entry that follows.
1. NCc1cccc(CNC(=O)[C@H](NC(=O)OCc2ccccc2)c2ccc(OCc3ccccc3)cc2)c1 (racemic)
2. CC(C)[C@H](Nc1ncnc2[nH]c(-c3cnn(C)c3C#N)cc12)c1ccc2c(c1)NC(=O)CO2 (racemic)

Reply |
1: 0.44; 2: 2.25

Please report log10 microsomal CLint for every entry that follows.
1. CNC(=O)c1cc2c(N[C@H](c3ccc4c(c3)NC(=O)CO4)C(C)C)ncnc2[nH]1 (racemic)
2. O=C(Nc1cc(Br)c2c(c1)CNC2)c1cc(F)cc2[nH]ncc12

Reply |
1.30
2.16

----------
conditions: mouse; liver_microsomes
readout_type: microsomal CLint (µL/min/mg)
Give bare numbers, in µL/min/mg.

Sample answers from the record:
compound: CC(C)[C@H](Nc1ncnc(N)c1Cl)c1ccc2c(c1)S(=O)(=O)CCC2 (racemic)
microsomal CLint, µL/min/mg: 204
--
compound: COc1ccc([C@H](Cc2nnn[nH]2)NC(=O)c2ncnc3[nH]ccc23)cc1 (single isomer, unassigned)
microsomal CLint, µL/min/mg: 7
--
compound: CNCc1cc(-c2cc3c(N[C@H](c4ccc5c(c4)S(=O)(=O)NCC5)C(C)C)ncnc3[nH]2)co1 (racemic)
microsomal CLint, µL/min/mg: 42

Please report microsomal CLint for every entry that follows.
1. CNC(=O)c1cc2c(N[C@H](c3ccc4c(c3)NC(=O)CO4)C(C)C)ncnc2[nH]1 (single isomer, unassigned)
2. C[C@H](C(=O)O)[C@H](NC(=O)c1ncnc2[nH]ccc12)c1ccc(Br)cc1 (mixture of isomers)
3. CNCc1cc(-c2cc3c(N[C@H](c4ccc5c(c4)S(=O)(=O)CCC5)C(C)C)ncnc3[nH]2)co1 (racemic)
4. Cn1ncc(-c2cc3c(N[C@H](c4ccc5c(n4)OCCO5)C(C)(C)C)ncnc3[nH]2)c1C#N (racemic)
5. O=C(Nc1ccccc1)Nc1ccc(C(=O)NC2c3cccc(O)c3CC2C(=O)O)cc1 (stereo unspecified)
6. CC(C)[C@H](Nc1ncnc2[nH]c(-c3cnn(CC(N)=O)c3)cc12)c1ccc2c(c1)S(=O)(=O)CCC2 (racemic)
7. COc1ccc2c(c1)CCN(c1ncnc3[nH]ccc13)[C@H]2C(C)C (racemic)

Reply |
[33, 4, 52, 209, 2, 61, 321]

Please report microsomal CLint for every entry that follows.
1. CCNC(=O)c1cc2c(N[C@H](c3ccc4c(c3)S(=O)(=O)CCC4)C(C)C)ncnc2[nH]1 (racemic)
2. CC(C)[C@H](Nc1ncnc2[nH]c(-c3cnn(CC(N)=O)c3)cc12)c1ccc2c(n1)OCCO2 (racemic)
3. C[C@H](C(=O)O)[C@@H](NC(=O)c1ncnc2[nH]ccc12)c1ccc(Br)cc1 (single isomer, unassigned)
4. CNC(=O)c1c[nH]c2ncnc(N[C@H](c3ccc4c(c3)OCCO4)C(C)C)c12 (racemic)
5. Cc1c(C(=O)Nc2cc(-c3cccnc3)ccn2)cc(C2CC2)n1C
6. O=C(Nc1cc2c(c(C3=CCOCC3)c1)CNC2)c1cc(F)cc2[nH]ncc12

Reply |
1. 85
2. 12
3. 4
4. 88
5. 388
6. 152

----------
readout_type: solubility kinetic

Please report solubility kinetic for every entry that follows.
1. COCCNC(=O)c1c[nH]c2ncnc(N[C@H](c3ccc4c(c3)S(=O)(=O)CCC4)C(C)C)c12 (racemic)
2. NCc1cccc(NC(=O)C[C@H](NC(=O)OCc2ccccc2)c2ccc(OCc3ccccc3)cc2)c1 (racemic)
3. COc1cc(-c2cc(NC(=O)c3cc(F)cc4[nH]ncc34)cc3c2CNC3)ccn1
4. CNC(=O)[C@H](Nc1cc(CN)cc(-c2nn[nH]n2)c1)c1cc(Cl)cc(C2CC2)c1 (racemic)

Reply |
1: 378 µM; 2: 17 µM; 3: 180 µM; 4: 352 µM

Please report solubility kinetic for every entry that follows.
1. N#C[C@H](Nc1ccc2c(c1)CNC2)c1cc(Cl)cc2[nH]ncc12 (racemic)
2. Cc1cc(-c2noc(C(F)(F)F)n2)ccc1OCCCc1cc(C(=O)N(C)C)no1
3. Cc1nccn1C[C@H]1CCc2c(c3ccccc3n2C)C1=O (racemic)
4. CCNC(=O)c1cc2c(N[C@H](c3ccc4c(c3)OCCO4)C(C)C)ncnc2[nH]1 (racemic)
5. O=C(NCC(F)F)[C@H](Nc1cnc2c(c1)CNC2)c1cc(Cl)cc(C2CC2)c1 (racemic)
6. CNC(=O)c1c[nH]c2ncnc(N[C@H](c3ccc4c(c3)S(=O)(=O)CCC4)C(C)C)c12 (racemic)
7. Cn1ncc2c(C(=O)Nc3ccc4c(c3)CNC4)cc(Br)cc21
8. CC(C)[C@H](Nc1ncnc2[nH]c(-c3cnn(CC(=O)N(C)C)c3)cc12)c1ccc2c(c1)OCCO2 (racemic)

Reply |
297 µM
9 µM
127 µM
72 µM
362 µM
390 µM
392 µM
210 µM

Please report solubility kinetic for every entry that follows.
1. O=C(Nc1ccc2c(c1)CNC2)c1cc(Cl)cc2c1cnn2C1CCC1
2. NCc1cccc(NC(=O)c2cc(Cl)cc(NC(=O)OCc3ccccc3)c2)c1
3. O=C(O)c1cc(Cl)ccc1NS(=O)(=O)c1ccc(-c2ccccc2Cl)cc1
4. NCc1cccc(CNC(=O)[C@H](NC(=O)OCc2ccccc2)c2ccc(OCc3ccccc3)cc2)c1 (racemic)
5. CCc1cc(C(=O)Nc2cccc(CN)c2)sc1-c1ccc(Cl)cc1
6. O=C(Nc1cc(Cl)cc(C(=O)Nc2ccc3c(c2)CNC3)c1)OCc1ccccc1
7. O=C(Nc1cc2c(cc1C1CC1)CNC2)c1cc(F)cc2[nH]ncc12

Reply |
172 µM
89 µM
397 µM
78 µM
7 µM
35 µM
189 µM
